Please respond with reported pIC50 for every item in the list.
Tested on: TNF-α production in THP-1 (human monocyte cell line)
test: Inhibitory activity against TNF-α production using human cell lines (LPS-stimulated THP-1)
Format: cell-based
condition-parameters: 1.5 h, THP-1 cells stimulated by LPS, cultured for 90 minutes, TNF-α by ELISA
Expect pIC50 as a plain number equal to -log10 of the molar concentration.

Bench note: what pIC50 did Cc1ccc(-n2nc(C(C)(C)C)cc2NC(=O)Nc2ccc(CN3CCN(C(=O)c4ccc(CN5CCN(C)CC5)cc4)CC3)cc2C)cc1 [Example 13(1)] show? 7.46

Moving on to Cc1ccc(-n2nc(C(C)(C)C)cc2NC(=O)Nc2cc(CN3CCN(C(=O)c4ccc(CN5CCN(C)CC5)cc4)CC3)ccc2Cl)cc1 [13(2)] 7.68

Continue with Cc1ccc(-n2nc(C(C)(C)C)cc2NC(=O)Nc2ccc(OC3CCN(C(=O)c4ccc(CN5CCN(C)CC5)cc4)CC3)cc2C)cc1 [Example 17] 7.77

Proceed to Cc1ccc(-n2nc(C(C)(C)C)cc2NC(=O)Nc2ccc(CN3CCC(=O)N(c4ccccc4C)C3)cc2)cc1 [Example 4(1)] 8.64
